# System: SK-MEL-28 melanoma
# assay.info: NCI-60 one-dose screen, 48 h
# stated.conditions: 10 µM
About 83,000 compounds went through this panel and 20% of them were active in at least one assay; those are over-represented in the sample as a whole. The source made the active and inactive calls. The calls were made as follows: active = growth percent below 10; inactive = the rest.
Answer with one of the outcomes given here: T for active, F for inactive

compound | assigned.label
C#CCNC(=O)CCC(=O)OC[C@]12CC[C@@H](C(=C)C)[C@@H]1C1CC[C@@H]3[C@@]4(C)CCCNC(C)(C)[C@@H]4CC[C@@]3(C)[C@]1(C)CC2 (stereo partly drawn) | T

Per the assay record, what outcome was assigned to COc1nccnc1NS(=O)(=O)c1ccc(NC2=C(Cl)C(=O)c3nc(C)ccc3C2=O)cc1 ?
F

Per the assay record, what outcome was assigned to Cc1ccc(-c2ccc(SCC(=O)Nc3ccc(S(N)(=O)=O)cc3Br)nn2)cc1 ?
F

Per the assay record, what outcome was assigned to COc1cc(NC(=O)CSc2nnc(-c3ccc4nc(-c5ccc(Cl)cc5)[nH]c4c3)o2)cc(OC)c1OC ?
F

Per the assay record, what outcome was assigned to COc1ccc(-c2nc(S(=O)(=O)c3ccc(C)cc3)c(S(=O)(=O)CC(=O)N(C)Cc3ccccc3)o2)cc1 ?
F

Per the assay record, what outcome was assigned to Cc1ccc(C(C)C)cc1NC(=O)c1ccccc1O ?
F

---

# System: A549/ATCC NSCLC
# assay.info: NCI-60 one-dose screen, 48 h
# stated.conditions: 10 µM
About 83,000 compounds went through this panel and 20% of them were active in at least one assay; those are over-represented in the sample as a whole. Activity calls are given as the source filed them. The calls were made as follows: active = growth percent below 10; inactive = the rest.
Answer with one of the outcomes given here: true (1) = active, false (0) = inactive

Solved cases (5 shown):
molecule | assigned.label
COc1cc(NC(=O)CSc2nnc(-c3ccc4nc(-c5ccc(Cl)cc5)[nH]c4c3)o2)cc(OC)c1OC | false (0)
Cc1cccc(-c2nc(Nc3ccccc3C(=O)O)c3ccccc3n2)c1 | false (0)
CN1C(=O)N(C)C2SC(N/N=C/c3ccccc3F)=NC21 (configuration not stated) | false (0)
COc1ccc(OC)c(-c2cc(-c3c[nH]c4ccccc34)nc(N)c2C#N)c1 | false (0)
COc1ccc2[nH]c(=O)c(CSc3ccc(Nc4nccc(-c5ccc(Cl)cc5)n4)cc3)cc2c1 | false (0)

Per the assay record, what outcome was assigned to COc1cc2c(c(OC)c1OC)C(=O)CC(c1cccc(NC(=O)c3cccc(N)c3)c1)O2 (configuration not stated) ?
false (0)

Per the assay record, what outcome was assigned to C/C(=C\CC/C=C(\C)CC/C=C(\C)CC[C@@H](O)C(C)(C)O)CC/C=C(\C)CC[C@@H](O)C(C)(C)O ?
false (0)

Per the assay record, what outcome was assigned to CCCCCCCCCCCCCCCCCCCC(=O)NCCc1c[nH]c2ccc(OC(=O)CCCC(=O)OCCOOCCOOCCOOCCOOCCOOCCOOCCOOCCOOCCOOCCOOCCOOCCOC)cc12 ?
false (0)

Per the assay record, what outcome was assigned to CCOc1ccc2ncc(C#Cc3cncc(C(=O)Nc4ccc(CN5CCN(C)CC5)c(C(F)(F)F)c4)c3)n2n1 ?
true (1)

---

# System: TK-10 renal
# assay.info: NCI-60 one-dose screen, 48 h (100 = growth as untreated, 0 = no growth, -100 = all killed)
# stated.conditions: 10 µM
The panel holds about 83,000 compounds, 20% with a hit somewhere; the sample as a whole holds those more often.
Quick reference for growth among some compounds
Just the number in %, nothing appended.

Answered examples (6):
compound | growth, %
CN1C(=O)N(C)C2SC(N/N=C/c3ccccc3)=NC21 (stereo not drawn) | 87.4
Cc1ccn2c(C(=O)c3ccccc3)cc(-c3cc(-c4ccc(N(C)C)cc4)c(C#N)c(N)n3)c2c1 | 85.7
Cc1ccc(/C(N)=N/c2sc(-c3ccccc3)nc2-c2ccccc2)cc1 | 100
CCOP(=O)(OCC)O[C@H]1CCC(=O)[C@@H]2[C@H]1[C@H]1C[C@@H]3[C@@]4(C)CCCC(C)(C(=O)OC)[C@@H]4CC[C@@]23C=C1C(C)C (stereo partly drawn) | 83.2
COc1ccc2[nH]cc(/C=N/Nc3cccc(Cl)n3)c2c1 | 91.1
Cc1ccc2nc(COc3ccc(C(=O)NNC(=S)NC(=O)c4ccccc4)cc3)[nH]c2c1 | 67.8

Answer with the recorded growth of O=C1CCC(N2Cc3cc(NC(=O)COc4ccccc4)ccc3C2=O)C(=O)N1 (stereo not drawn) only.
66

Answer with the recorded growth of O=C(Cc1ccc2c(c1)CN(C1CCC(=O)NC1=O)C2=O)NCc1cccc2ccccc12 (stereo not drawn) only.
18

Answer with the recorded growth of O=C1Nc2cc(Cl)ccc2/C1=C/c1cccc(OCc2ccccc2)c1 only.
33.6

Answer with the recorded growth of CN1CCN(c2ccc(Nc3nc(N4CCN(S(=O)(=O)c5ccc(Cl)cc5)CC4)c4sccc4n3)cc2)CC1 only.
85.9

Answer with the recorded growth of Cc1cc(=O)oc2cc(OCCCCOc3ccc(/C=C/C(=O)Nc4cccc(Cl)c4)cc3)ccc12 only.
66.2

Answer with the recorded growth of C=C(C)[C@@H]1CC[C@]2(C(=O)OC)CC[C@]3(C)[C@H](CC[C@@H]4[C@@]5(C)CC[C@H](N)C(C)(C)[C@@H]5CC[C@]43C)[C@@H]12 only.
-87.8

Answer with the recorded growth of COc1cc(NC(=O)CSc2nnc(-c3ccc4nc(-c5ccc(Cl)cc5)[nH]c4c3)o2)cc(OC)c1OC only.
116

Answer with the recorded growth of N#Cc1c(-c2ccc(F)cc2)nc(SCc2ccc(F)cc2)nc1N1CCOCC1 only.
77.6

Answer with the recorded growth of COc1ccc2[nH]c(O)c(N=NC(=O)c3cc(-c4ccc(C)cc4)nc4ccccc34)c2c1 only.
117

Answer with the recorded growth of Cc1ccc(-c2cc(-c3cc4ccccc4nc3Cl)[nH]c(=S)n2)cc1 only.
107

Answer with the recorded growth of O=C(NO)c1ccc(CNC(=O)[C@H]2Cc3c([nH]c4ccccc34)[C@H](c3ccccc3)N2)cc1 only.
30.9

Answer with the recorded growth of O=C(CSc1nnc(-c2c[nH]c3ccccc23)n1-c1ccccc1)Nc1ccc(C(=O)/C=C/c2ccccc2Cl)cc1 only.
103

---

# Tested on: UACC-62 melanoma
# assay.info: NCI-60 one-dose screen, 48 h
# stated.conditions: 10 µM
Compounds without any hit were thinned out: in the full panel of roughly 83,000, 20% have a hit. The source made the active and inactive calls. The calls were made as follows: active = growth percent below 10; inactive = the rest.
Answer with one of the outcomes given here: 1 (active), 0 (inactive)

Solved cases (5 shown):
compound | measured.on | assigned.label
Cc1ccc(-c2nc3ccc(C(=O)N=Nc4c(O)[nH]c5ccc([N+](=O)[O-])cc45)cc3[nH]2)cc1 | UACC-62 melanoma | 0
O=C(/C=C/Nc1ccc(F)cc1F)c1ccc2c(c1)Nc1ccccc1S2 | UACC-62 melanoma | 0
Nc1nc(Nc2ccc(Cl)cc2)n(Cc2cccc(Br)c2)n1 | UACC-62 melanoma | 1
O=C(Nc1cccc(C(F)(F)F)c1)c1cncc(C#Cc2cnc3ccc(N4CCOCC4)nn23)c1 | UACC-62 melanoma | 1
CC[C@]12C=CCN3CC[C@@]4(c5cc(C#CCNc6ccc(C)c(Nc7nccc(-c8cccnc8)n7)c6)c(OC)cc5N(C)[C@H]4[C@@](O)(C(=O)OC)[C@@H]1OC(C)=O)C32 (stereo partly drawn) | UACC-62 melanoma | 0

Per the assay record, what outcome was assigned to CN1CCc2c(sc3ncnc(N/N=C/c4cn(-c5ccccc5)nc4-c4ccc(Br)cc4)c23)C1 ?
0

Per the assay record, what outcome was assigned to CC(=O)Nc1ccc(-c2cn(-c3cccc(C(=O)Nc4cc(CN5CCOCC5)cc(C(F)(F)F)c4)c3)nn2)cn1 ?
1

Per the assay record, what outcome was assigned to O=c1oc2ccc(-c3ccc(F)cc3F)cc2c(=O)n1-c1ccc(Cl)c(C(F)(F)F)c1 ?
1

---

Quick reference for growth among some compounds
# Tested on: KM12 colon
# assay.info: NCI-60 one-dose screen, 48 h (100 = growth as untreated, 0 = no growth, -100 = all killed)
# stated.conditions: 10 µM
The panel holds about 83,000 compounds, 20% with a hit somewhere; the sample as a whole holds those more often.
Just the number in %, nothing appended.

Answered examples (5):
compound | measured.property | endpoint.result
COc1ccc(N2N=C(c3ccc4c(c3)OCCO4)CC2c2cccc(NC(=O)CCCNS(=O)(=O)c3ccc(F)cc3)c2)cc1 (centres undefined) | growth | -92.8
Cc1ccc2nc(COc3ccc(C(=O)NNC(=S)NC(=O)c4ccccc4)cc3)[nH]c2c1 | growth | 49.4
C/C(=C\c1ccc(O)cc1O)c1ccc2ccc(O)cc2[o+]1 | growth | 22.5
C#CCNC(=O)CCC(=O)OC[C@]12CC[C@@H](C(=C)C)[C@@H]1C1CC[C@@H]3[C@@]4(C)CCCNC(C)(C)[C@@H]4CC[C@@]3(C)[C@]1(C)CC2 (some centres undefined) | growth | 6.5
COc1cc(Cn2c(C(F)(F)F)cc3c(Cl)ncnc32)ccn1 | growth | 30.8

Answer with the recorded growth of O=C1CCC(N2Cc3cc(CC(=O)Nc4ccc(N5CCCCC5)cc4)ccc3C2=O)C(=O)N1 (centres undefined) only.
41.1

Answer with the recorded growth of O=C(Nc1ccc(Cl)c([N+](=O)[O-])c1)Nc1ccc(Cl)c([N+](=O)[O-])c1 only.
5.87

Answer with the recorded growth of O=C(NO)c1ccc(Cn2ccc3c(NCc4ccccc4)ncnc32)cc1 only.
11.9

Answer with the recorded growth of CN1C(=O)/C(=C/c2nccs2)SC1=S only.
90.2
